SYSTEM_UNDER_TEST: cannabinoid receptors (CB1), rat brain membranes (Rattus norvegicus, UniProt P20272)
Construct: Crude membrane fractions were prepared from the brain; from tissue; host or cells: Wistar rat whole brain, crude membrane fraction
Sequence (P20272 whole entry): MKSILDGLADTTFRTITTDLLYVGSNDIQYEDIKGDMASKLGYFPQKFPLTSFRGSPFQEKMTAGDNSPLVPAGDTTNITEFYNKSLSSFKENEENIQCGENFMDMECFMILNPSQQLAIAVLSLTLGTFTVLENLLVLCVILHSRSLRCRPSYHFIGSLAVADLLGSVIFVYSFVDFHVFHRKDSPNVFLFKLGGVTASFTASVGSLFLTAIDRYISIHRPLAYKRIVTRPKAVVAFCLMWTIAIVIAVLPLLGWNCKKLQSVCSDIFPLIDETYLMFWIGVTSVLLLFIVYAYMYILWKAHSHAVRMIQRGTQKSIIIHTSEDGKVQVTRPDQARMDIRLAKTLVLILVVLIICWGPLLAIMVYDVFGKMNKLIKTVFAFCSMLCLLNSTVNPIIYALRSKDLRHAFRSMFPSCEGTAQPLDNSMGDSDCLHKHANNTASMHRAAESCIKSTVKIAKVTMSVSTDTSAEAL
ASSAY_NOTES: [3H]WIN55212-2 radioligand competition binding assay
Procedure: Wistar rats were locally bred and handled according to the EU Directive 2010/63/EU and to the Regulations on Animal Protection (40/2013. (II. 14.) Korm. r.) of Hungary. Crude membrane fractions were prepared from the brain. Brains were quickly removed from the euthanized rats and directly put in an ice-cold 50 mM Tris–HCl buffer (pH 7.4). The collected tissue was then homogenized in 30 volumes (v/w) of an ice-cold buffer with a Braun Teflon-glass homogenizer at the highest rpm. […]
ENDPOINT: pKi
Please treat pKi as minus the base-10 logarithm of the molar concentration.

Task: Would you mind telling me what pKi value was observed for CNC(=O)[C@@H](NC(=O)c1nn(Cc2ccc(Cl)cc2Cl)c2ccccc12)C(C)C [LONI10] ?
Result: 7.08

Task: Would you mind telling me what pKi value was observed for CNC(=O)[C@H](CC(C)C)NC(=O)c1nn(Cc2ccc(Cl)cc2Cl)c2ccccc12 [LONI12] ?
Result: 6.49

Task: Would you mind telling me what pKi value was observed for CNC(=O)[C@@H](NC(=O)c1nn(Cc2ccc(Cl)cc2Cl)c2ccccc12)C(C)(C)C [LONI11] ?
Result: 7.96

Source listed as paper PMC6770484.
